Where do the numbers come from? From ChEMBL document CHEMBL4706621.

Molecular target: Prostaglandin G/H synthase 1 (Ovis aries)
Sequence (whole entry): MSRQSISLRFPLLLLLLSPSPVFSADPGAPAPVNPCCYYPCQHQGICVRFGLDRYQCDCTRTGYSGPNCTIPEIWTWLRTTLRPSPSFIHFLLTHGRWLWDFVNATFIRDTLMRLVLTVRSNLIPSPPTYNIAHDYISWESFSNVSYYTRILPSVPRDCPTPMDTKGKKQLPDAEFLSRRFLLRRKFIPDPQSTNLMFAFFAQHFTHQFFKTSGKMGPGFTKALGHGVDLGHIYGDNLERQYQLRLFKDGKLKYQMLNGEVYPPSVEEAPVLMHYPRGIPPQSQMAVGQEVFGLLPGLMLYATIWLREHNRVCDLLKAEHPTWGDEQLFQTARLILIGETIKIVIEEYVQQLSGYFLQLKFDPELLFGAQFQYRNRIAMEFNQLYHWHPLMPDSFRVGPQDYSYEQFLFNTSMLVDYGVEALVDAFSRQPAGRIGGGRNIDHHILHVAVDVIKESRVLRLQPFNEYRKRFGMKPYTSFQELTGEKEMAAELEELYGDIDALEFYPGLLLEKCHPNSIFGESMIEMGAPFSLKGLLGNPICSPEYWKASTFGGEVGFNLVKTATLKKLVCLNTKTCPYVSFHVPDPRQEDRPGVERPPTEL
Test: Inhibition of ovine COX-1 assessed as peroxidase activity using arachidonic acid as substrate at 50 uM by colorimetric method
Binary classification by inhibition, with 70% as an inclusive lower bound for criterion met; all other cases are criterion not met.

Task: Reported inhibition at or above 70%? COc1ccc(-c2noc(CC(=O)NCCCCN)c2-c2ccc(OC)cc2)cc1
Result: criterion met

Task: Reported inhibition at or above 70%? COc1ccc(-c2noc(CC(=O)Nc3ccc(NC(=O)Cc4onc(-c5ccc(OC)cc5)c4-c4ccc(OC)cc4)cc3)c2-c2ccc(OC)cc2)cc1
Result: criterion met

Task: Reported inhibition at or above 70%? COc1ccc(-c2noc(CC(=O)Nc3ccc(-c4ccc(NC(=O)Cc5onc(-c6ccc(OC)cc6)c5-c5ccc(OC)cc5)cc4)cc3)c2-c2ccc(OC)cc2)cc1
Result: criterion met

Task: Reported inhibition at or above 70%? COc1ccc(-c2noc(CC(=O)NCCCCCCCCCCCCNC(=O)Cc3onc(-c4ccc(OC)cc4)c3-c3ccc(OC)cc3)c2-c2ccc(OC)cc2)cc1
Result: criterion not met

Task: Reported inhibition at or above 70%? CCCCC/C=C\C/C=C\C/C=C\C/C=C\CCCC(=O)Nc1ccc(-c2ccc(NC(=O)Cc3onc(-c4ccc(OC)cc4)c3-c3ccc(OC)cc3)cc2)cc1
Result: criterion not met

Task: Reported inhibition at or above 70%? COc1ccc(-c2noc(CC(=O)Nc3ccc(-c4ccc(N)cc4)cc3)c2-c2ccc(OC)cc2)cc1
Result: criterion met

Task: Reported inhibition at or above 70%? CCCCC/C=C\C/C=C\C/C=C\C/C=C\CCCC(=O)NCCCCNC(=O)Cc1onc(-c2ccc(OC)cc2)c1-c1ccc(OC)cc1
Result: criterion not met

Task: Reported inhibition at or above 70%? COc1ccc(-c2noc(CC(=O)NCCCCCCNC(=O)Cc3onc(-c4ccc(OC)cc4)c3-c3ccc(OC)cc3)c2-c2ccc(OC)cc2)cc1
Result: criterion not met

Task: Reported inhibition at or above 70%? COc1ccc(-c2noc(CC(=O)NCCCCNC(=O)Cc3onc(-c4ccc(OC)cc4)c3-c3ccc(OC)cc3)c2-c2ccc(OC)cc2)cc1
Result: criterion met

Task: Reported inhibition at or above 70%? CCCCC/C=C\C/C=C\C/C=C\C/C=C\CCCC(=O)Nc1ccc(NC(=O)Cc2onc(-c3ccc(OC)cc3)c2-c2ccc(OC)cc2)cc1
Result: criterion not met

Task: Reported inhibition at or above 70%? COc1ccc(-c2noc(CC(=O)Nc3ccc(N)cc3)c2-c2ccc(OC)cc2)cc1
Result: criterion met

Task: Reported inhibition at or above 70%? COc1ccc(-c2noc(CC(=O)NCCNC(=O)Cc3onc(-c4ccc(OC)cc4)c3-c3ccc(OC)cc3)c2-c2ccc(OC)cc2)cc1
Result: criterion met
